- System Name: MePqqB (Methylobacterium extorquens PqqB, Me PqqB) (Methylorubrum extorquens, UniProt Q49149)
- Sequence (Q49149 1-299): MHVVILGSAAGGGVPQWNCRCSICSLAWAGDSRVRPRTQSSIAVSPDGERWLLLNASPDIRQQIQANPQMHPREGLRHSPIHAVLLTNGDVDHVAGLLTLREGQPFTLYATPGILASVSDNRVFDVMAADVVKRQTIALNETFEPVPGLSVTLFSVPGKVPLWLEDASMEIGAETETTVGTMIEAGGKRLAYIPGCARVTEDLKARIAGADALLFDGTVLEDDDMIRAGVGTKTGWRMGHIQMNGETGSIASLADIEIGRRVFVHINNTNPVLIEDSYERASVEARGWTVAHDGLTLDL
pKd: −log10 of the molar value.
Observed Property: pKd

Req: Item under review: N[C@@H](CSc1cc(C[C@H](N)C(=O)O)cc(O)c1O)C(=O)O [Cys-DOPA] . Reported pKd?
Resp: ~6.70
